ASSAYED SYSTEM: Neu5Ac(a2-6)Gal(b1-4)GlcNAc(b1-3)[Neu5Ac(a2-6)Gal(b1-4)GlcNAc(b1-6)]GalNAc
RUN DESCRIPTION: glycan array binding signal (z-score within array); higher = stronger binding
STUDY CONDITIONS: glycan notation: IUPAC condensed, linker removed
This excerpt belongs to a sample that is enriched for the strongest signals.
READOUT KIND: glycan array binding signal (z-score)
Please give only the number in your answer, with no unit.

response.value for Clec18A (Homo sapiens) (protein) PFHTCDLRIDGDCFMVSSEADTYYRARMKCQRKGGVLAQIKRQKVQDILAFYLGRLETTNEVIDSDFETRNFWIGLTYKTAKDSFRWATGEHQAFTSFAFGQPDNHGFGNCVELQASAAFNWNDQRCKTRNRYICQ (field: glycan array binding signal (z-score)) = 3.01
